- measurement-target: Gal(b1-4)GlcNAc(b1-3)Gal(b1-4)GlcNAc(b1-3)GalNAc
- assay-info: glycan array binding signal (z-score within array); higher = stronger binding
- conditions-used: glycan notation: IUPAC condensed, linker removed
This is one part of a sample in which the strongest signals are shown more often than they occur.
measured-metric: glycan array binding signal (z-score)
Lab note: record just the number, no unit beside it.

Record excerpt, results attached:
binder: CFEM-PPl (Pichia pastoris), F2QPV1 (protein) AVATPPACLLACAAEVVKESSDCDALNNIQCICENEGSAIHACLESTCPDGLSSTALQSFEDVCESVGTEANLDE
glycan array binding signal (z-score): -0.058

binder: LysMD3 (Homo sapiens), Q7Z3D4 (protein) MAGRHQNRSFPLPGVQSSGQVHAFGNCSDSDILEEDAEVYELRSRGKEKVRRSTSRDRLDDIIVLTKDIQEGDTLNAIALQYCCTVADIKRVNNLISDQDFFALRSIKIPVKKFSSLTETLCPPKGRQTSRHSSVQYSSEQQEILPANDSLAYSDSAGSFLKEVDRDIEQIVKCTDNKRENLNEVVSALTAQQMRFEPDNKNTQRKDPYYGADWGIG
glycan array binding signal (z-score): -0.073

binder: Arath Fbox (Arabidopsis thaliana), NP_178341.1 (protein) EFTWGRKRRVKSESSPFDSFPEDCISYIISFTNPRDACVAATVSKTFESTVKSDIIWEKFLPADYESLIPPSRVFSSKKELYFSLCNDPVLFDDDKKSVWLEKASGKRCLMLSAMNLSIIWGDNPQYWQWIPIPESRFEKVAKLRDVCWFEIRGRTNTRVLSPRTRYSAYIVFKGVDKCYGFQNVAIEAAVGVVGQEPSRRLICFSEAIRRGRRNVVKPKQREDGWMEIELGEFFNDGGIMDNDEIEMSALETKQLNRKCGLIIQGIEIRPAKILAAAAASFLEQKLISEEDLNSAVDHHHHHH
glycan array binding signal (z-score): 0.46

Pending binder:
Report glycan array binding signal (z-score), nothing else, for this binder: GS13455A-bfa-343-25-343 (Bacteroides fragilis) (protein) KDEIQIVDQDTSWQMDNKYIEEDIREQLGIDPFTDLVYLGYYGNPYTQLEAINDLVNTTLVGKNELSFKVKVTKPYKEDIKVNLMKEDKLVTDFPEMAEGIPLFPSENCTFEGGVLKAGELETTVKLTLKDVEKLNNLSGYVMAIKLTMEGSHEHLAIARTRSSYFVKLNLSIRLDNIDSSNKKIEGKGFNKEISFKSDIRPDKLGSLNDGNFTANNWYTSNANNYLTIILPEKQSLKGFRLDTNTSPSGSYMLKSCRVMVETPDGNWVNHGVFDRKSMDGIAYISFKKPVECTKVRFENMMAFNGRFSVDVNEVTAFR
-0.065

Where these numbers come from: the supplement of paper PMC8728848
